pKi: −log10 of the molar value.
QUANTITY MEASURED: pKi

Prompt line: What measured pKi is associated with `CCC[C@@H](Oc1ccc(Cl)cc1)[C@H]1CCNC1` on hNET (Homo sapiens)?
Response line: ≥ 8.00

Prompt line: Enter reported pKi observed with hNET (Homo sapiens) for `Clc1cc(Cl)cc(O[C@H](C2CC2)[C@H]2CCNC2)c1`
Sequence (P23975 whole entry): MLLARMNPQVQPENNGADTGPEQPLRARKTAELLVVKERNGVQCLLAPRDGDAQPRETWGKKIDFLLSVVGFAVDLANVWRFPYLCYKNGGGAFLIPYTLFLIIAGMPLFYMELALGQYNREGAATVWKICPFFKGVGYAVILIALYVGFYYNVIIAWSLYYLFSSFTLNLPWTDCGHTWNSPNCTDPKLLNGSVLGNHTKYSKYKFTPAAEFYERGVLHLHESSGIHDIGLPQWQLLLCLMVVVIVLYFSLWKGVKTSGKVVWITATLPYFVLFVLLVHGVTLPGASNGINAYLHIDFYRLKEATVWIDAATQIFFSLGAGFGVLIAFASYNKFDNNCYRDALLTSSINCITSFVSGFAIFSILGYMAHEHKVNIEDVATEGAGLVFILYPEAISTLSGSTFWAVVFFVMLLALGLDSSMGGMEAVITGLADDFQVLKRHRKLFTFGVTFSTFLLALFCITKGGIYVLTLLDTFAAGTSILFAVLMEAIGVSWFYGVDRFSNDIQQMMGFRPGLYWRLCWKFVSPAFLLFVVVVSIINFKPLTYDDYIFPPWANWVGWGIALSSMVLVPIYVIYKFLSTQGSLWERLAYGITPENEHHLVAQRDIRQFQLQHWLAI
Response line: ≥ 8.00

Prompt line: For the record CC(C)CC(Oc1cc(Cl)cc(Cl)c1)C1CCNC1 (stereo not drawn) , what value of pKi is listed for hNET (Homo sapiens)?
Response line: ≥ 8.00

Prompt line: Checklist item: pKi tested on hNET (Homo sapiens), entry `CCOc1cc(Cl)ccc1O[C@@H](C1CC1)[C@H]1CCNC1` , value?
Response line: ≥ 8.00

Prompt line: Entry `CC[C@H](Oc1ccc(Cl)cc1OC)[C@H]1CCNC1` , system hNET (Homo sapiens): what pKi was measured?
Response line: ≥ 8.00

Prompt line: Query the reported pKi for hNET (Homo sapiens); item: `CCC[C@H](Oc1cc(Cl)cc(Cl)c1)[C@@H]1CCNC1`
Response line: ≥ 7.00

Prompt line: Item `CC(C)C[C@H](Oc1cc(F)cc(Cl)c1)[C@H]1CCNC1` with hNET (Homo sapiens) - pKi?
Response line: ≥ 8.00

Prompt line: What pKi appears in the records for this molecule with hNET (Homo sapiens)? `CC(C)[C@H](Oc1ccccc1[N+](=O)[O-])[C@H]1CCNC1`
Response line: ≥ 8.00

Prompt line: Item `CCc1cc(F)cc(F)c1O[C@@H](C1CC1)[C@H]1CCNC1` with hNET (Homo sapiens) - pKi?
Response line: ≥ 8.00
